Reference for the values: ChEMBL document CHEMBL6103538

tested on: MDA-MB-231; experiment: Anticancer activity against human MDA-MB-231 cells assessed as reduction in cell viability measured after 72 hrs by MTT assay; type: functional, cell-based; conditions: MDA-MB-231, 72 h
readout-label: IC50 (µM)
Please reply with the bare figure in µM and do not write the unit itself.

Q: GET /values?readout=IC50&item= NS(=O)(=O)c1ccc(NC(=S)NC(=O)c2ccc3c(c2)C(=O)c2ccccc2C3=O)cc1
A: 46.2

----------
target: Carbonic anhydrase 2 (Homo sapiens, UniProt P00918); assay: Binding affinity to human Carbonic anhyrase 2 assessed as inhibition constant pre-incubated for 10 mins by stopped-flow instrument based assay
readout-label: Ki (nM)
Please reply with the bare figure in nM and do not write the unit itself.

Q: GET /values?readout=Ki&item= COc1cccc(C(=O)/C=C/c2cn(Cc3cn(-c4ccc(S(N)(=O)=O)cc4)nn3)c3ccccc23)c1
A: 716

Q: GET /values?readout=Ki&item= Cc1ccc(C(=O)/C=C/c2cn(Cc3cn(-c4ccc(S(N)(=O)=O)cc4)nn3)c3ccccc23)cc1
A: 36.2

Q: GET /values?readout=Ki&item= NS(=O)(=O)c1ccc(-n2cc(Cn3cc(/C=C/C(=O)c4ccc(Br)cc4)c4ccccc43)nn2)cc1
A: 468
